src = patent US20200283478A1

- experimental-target: T1, His-tagged PCSK9Δhelix (human, UniProt Q8NBP7 31-152; Q8NBP7 168-692)
- T1 construct: Construct M1-Q692 with engineered TEV site, cut by TEV protease; new N-terminus of the catalytic domain is S-A168; also called His-PCSK9Δhelix
- T1 sequence (Q8NBP7 31-152, stated change not applied, chain 1 of 2): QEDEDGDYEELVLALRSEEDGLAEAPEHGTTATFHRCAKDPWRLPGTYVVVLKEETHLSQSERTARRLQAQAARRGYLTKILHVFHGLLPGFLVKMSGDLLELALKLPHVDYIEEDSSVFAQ
- T1 sequence (Q8NBP7 other isoform, or with tags, fused parts or gaps mutant, chain 2 of 2): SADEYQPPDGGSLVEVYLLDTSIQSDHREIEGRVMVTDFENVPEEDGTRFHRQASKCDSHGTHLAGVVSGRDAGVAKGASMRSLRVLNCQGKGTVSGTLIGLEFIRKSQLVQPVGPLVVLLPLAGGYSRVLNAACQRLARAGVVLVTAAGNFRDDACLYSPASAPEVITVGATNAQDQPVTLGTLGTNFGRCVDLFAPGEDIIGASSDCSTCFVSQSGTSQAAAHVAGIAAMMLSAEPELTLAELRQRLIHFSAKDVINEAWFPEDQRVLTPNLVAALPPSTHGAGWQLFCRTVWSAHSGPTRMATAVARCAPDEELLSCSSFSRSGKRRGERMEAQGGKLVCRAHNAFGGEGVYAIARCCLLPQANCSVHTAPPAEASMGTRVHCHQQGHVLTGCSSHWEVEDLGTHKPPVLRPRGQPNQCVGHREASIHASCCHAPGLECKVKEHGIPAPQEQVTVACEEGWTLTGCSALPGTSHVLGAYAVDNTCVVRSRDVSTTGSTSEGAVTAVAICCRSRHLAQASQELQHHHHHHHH
- experiment: TR-FRET competition; His-PCSK9Δhelix, competitor Ab20
Square brackets hold non-standard residues; d marks the D form. Ends that are not written are not given here. hArg = N=C(N)NCCCC[C@H](N)C(=O)O
observed-property: IC50
Answer with the number, then the unit.

binder	IC50
WNLVRIGLTR (also: further groups not given here, Structure printed only as a drawing) [Compound 173]	9.8 µM
WNLVRIGLTR (also: further groups not given here, Structure printed only as a drawing) [Compound 165]	18 µM
WNLVRIGLLR (also: further groups not given here, Structure printed only as a drawing) [Compound 142]	15 µM
WNLV[hArg]IGNR (also: further groups not given here, Structure printed only as a drawing) [Compound 240]	0.92 µM
Ac-GGMPWNLVRIGLLR-NH2 [Compound 125]	7 µM

Continue with the next binder.
Requested read-out: IC50. Entry: WNLVRIGLTR (also: further groups not given here, Structure printed only as a drawing) [Compound 172]
8.5 µM
